Molecular target: Cytochrome P450 3A4 (Homo sapiens) (UniProt P08684)
Sequence (P08684 whole entry, looked up): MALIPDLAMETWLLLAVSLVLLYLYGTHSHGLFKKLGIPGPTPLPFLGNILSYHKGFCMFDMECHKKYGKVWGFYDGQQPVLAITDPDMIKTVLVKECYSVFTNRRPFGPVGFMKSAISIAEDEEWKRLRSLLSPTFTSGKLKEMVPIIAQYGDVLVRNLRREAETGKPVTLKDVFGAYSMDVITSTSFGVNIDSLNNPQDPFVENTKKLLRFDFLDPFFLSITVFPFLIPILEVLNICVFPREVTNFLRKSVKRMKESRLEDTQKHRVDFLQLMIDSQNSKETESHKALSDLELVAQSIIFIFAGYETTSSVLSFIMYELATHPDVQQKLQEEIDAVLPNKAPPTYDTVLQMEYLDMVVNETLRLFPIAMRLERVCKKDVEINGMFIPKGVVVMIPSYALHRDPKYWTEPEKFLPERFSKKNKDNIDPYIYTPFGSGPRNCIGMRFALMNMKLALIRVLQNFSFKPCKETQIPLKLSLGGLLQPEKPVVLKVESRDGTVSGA
Assay: Cytochrome panel assay with activity outcomes; for activity, negative = inhibition: % is set by controls: 0 for no effect and ±100 for the full control effect
Conditions: recombinant CYP, pro-luciferin dealkylation, luminescence, p450-cyp3a4; series mostly up to 57.1 µM
Experimental: The P450 gene superfamily is involved in the metabolism and clearance of xenobiotics. This assay used various human CYP P450 isozymes to measure the dealkylation of various pro-luciferin substrates to luciferin. The luciferin is then measured by luminescence after the addition of a luciferase detection reagent. […] Inhibitors and some substrates limit the production of luciferin, and decrease measured luminescence. […] 8, Detection, 1 sec, ViewLux luminescent read […]
Out of some 16,000 compounds screened, about 5,100 (32%) were called active. Inconclusive results (about 25%) are left out. This is one part of the list.
What activity, negative = inhibition was measured for each of the following?

compound	activity, negative = inhibition
c1ccc(C(CCN2CC3CCC(CC3)C2)c2ccccc2)cc1	-1.84% [at 11.4 µM] (inactive)
CCc1c(O)nc(SCC(=O)NC(C)(C)C)n(-c2ccccc2)c1=O	-1.41% [at 2.29 µM] (inactive)
Clc1ccc(-c2nnc(CCc3ccccc3)o2)c(Cl)c1	0.747% [at 2.29 µM] (inactive)

Each of the following entries comes with a recorded value; kindly state activity, negative = inhibition for each.
1. CC(C)c1nnc(-c2ccc(Cl)cc2)c(N(C)C)n1
2. NS(=O)(=O)c1ccc(N=Nc2nc3[nH]cnc(=S)c3[nH]2)cc1
3. Cc1ccc(-c2nn(-c3ccccc3)cc2/C=N/NS(=O)(=O)c2ccccc2)cc1

-7.47% [at 2.29 µM] (inactive)
-11.9% [at 11.4 µM] (inactive)
-20.9% [at 2.29 µM] (inactive)

Each of the following entries comes with a recorded value; kindly state activity, negative = inhibition for each.
1. O=[N+]([O-])c1ccc(N/N=C\c2cccn2-c2ccccc2)nc1
2. CC(=O)OC[C@@H]1O[C@H](C/C=N\O[C@@H]2O[C@H](COC(C)=O)[C@@H](OC(C)=O)[C@H](OC(C)=O)[C@H]2OC(C)=O)C=C[C@@H]1OC(C)=O
3. C=CCn1c(Cc2c[nH]c3ccccc23)nnc1SCC(=O)NCc1ccccc1

1: 0.811% [at 2.29 µM] (inactive); 2: -25.4% [at 11.4 µM] (inactive); 3: -3.87% [at 2.29 µM] (inactive)

Each of the following entries comes with a recorded value; kindly state activity, negative = inhibition for each.
1. CCN(CC)c1ccc(NC(=O)c2cccnc2)c(C)c1
2. O=C(/C=C/c1ccc(Br)cc1)NC1CCCCCC1
3. CC(=O)OC[C@@H]1O[C@H](CCON=C(C)C)C=C[C@@H]1OC(C)=O
4. Cc1cc(C)c(-c2cc([C@H](C)O/N=C3/[C@H]4OC4[C@@H](O)[C@H]4[C@H]3CCn3c(=O)n(-c5ccccc5)c(=O)n34)on2)c(C)c1 (some centres not stated)
5. CC(C)/C(=N/[N+](C)(C)C)c1ccccc1
6. Nc1ccc(S(=O)(=O)Nc2cnc3ccccc3n2)cc1
7. Cc1ccc2[nH]c3c(N4CCc5ccccc5C4)ncnc3c2c1

["1.22% [at 2.29 µM] (inactive)", "-12.6% [at 11.4 µM] (inactive)", "-14.8% [at 11.4 µM] (inactive)", "-41% [at 11.4 µM] (inactive)", "-14.9% [at 11.4 µM] (inactive)", "-8.37% [at 11.4 µM] (inactive)", "-19.7% [at 2.29 µM] (inactive)"]

---

Target: Cytochrome P450 3A4 (Homo sapiens) (UniProt P08684)
Assay: Cytochrome panel assay with activity outcomes
Settings: recombinant CYP, pro-luciferin dealkylation, luminescence, p450-cyp3a4; series mostly up to 57.1 µM
Protocol: The P450 gene superfamily is involved in the metabolism and clearance of xenobiotics. This assay used various human CYP P450 isozymes to measure the dealkylation of various pro-luciferin substrates to luciferin. The luciferin is then measured by luminescence after the addition of a luciferase detection reagent. […] Inhibitors and some substrates limit the production of luciferin, and decrease measured luminescence. […] 8, Detection, 1 sec, ViewLux luminescent read […]
Screen size: about 16,000 compounds; about 5,100 (32%) were called active. About 25% were inconclusive and are not listed. The call rests on the fitted dose curve; in most records, active means well fitted curve in the direction sought with a large enough effect; inconclusive means small, poorly fitted or top-dose-only effect, or effect the other way; inactive means no such curve, though single readings can be large or run the other way. The list shows a part of the results.
// one of y for active, n for inactive, no free text

molecule	cat
COc1nnc(OC)c2ccccc12	n
S=C(NCc1ccccn1)Nc1cccc(Cl)c1	y

Entry CCNC(=O)COC(=O)c1cc(=O)[nH]c2ccccc12 : call = ?
n

Entry COC(=O)COc1ccc2c(-c3cccc([N+](=O)[O-])c3)cc(=O)oc2c1 : call = ?
n

Entry Cc1ccc(NC(=O)/C(=C\c2cccnc2)NC(=O)c2ccco2)cc1 : call = ?
n

Entry O=C1C=C(c2cccs2)CC(c2cccs2)C1n1cnc([N+](=O)[O-])c1 (centres undefined) : call = ?
n

Entry COc1ccc(S(=O)(=O)N2CCc3ccccc3C2)cc1OC : call = ?
y

Entry NC1=NC2(CCCCCC2)n2c(nc3ccccc32)N1 : call = ?
n

Entry O=C(Cc1ccccc1)N/N=C/C=C/c1cccc([N+](=O)[O-])c1 : call = ?
n

Entry O=S(=O)(c1ccc(Cl)s1)N1CCc2ccccc2C1 : call = ?
n

Entry CCOC(=O)c1sc2nc3c(cc2c1N)COC(C(C)C)C3 (centres undefined) : call = ?
n

Entry CCOC(=O)Cn1c(=O)oc2cc(S(=O)(=O)NCCc3ccc(OCC)c(OCC)c3)ccc21 : call = ?
y

---

Target: Cytochrome P450 3A4 (Homo sapiens)
Test: Cytochrome panel assay with activity outcomes
Settings: recombinant CYP, pro-luciferin dealkylation, luminescence, p450-cyp3a4; series mostly up to 57.1 µM
Out of some 16,000 compounds screened, about 5,100 (32%) were called active. Another 25% or so got no clear call; they are omitted. This is one part of the list.
testReadout: AC50

Consider the following illustrative entries.
molecule	systemTested	AC50
N#Cc1cccc(-c2nccc(NCc3cccnc3)n2)c1	Cytochrome P450 3A4 (Homo sapiens)	0.794 µM (active)
CCOCCCn1cnc2c([nH]c3cc(OC)ccc32)c1=O	Cytochrome P450 3A4 (Homo sapiens)	inactive
Cc1cccc(CNc2ccnc(-c3cccc(C#N)c3)n2)c1	Cytochrome P450 3A4 (Homo sapiens)	1.26 µM (active)
COc1ccc(/C(O)=C2/C(=O)C(=O)N(CCN3CCOCC3)C2c2ccc(C)cc2)cc1 (centres undefined)	Cytochrome P450 3A4 (Homo sapiens)	inactive
Cc1ccc(C(=O)NNC(=S)NC(=O)c2ccc(Cl)cc2)cc1	Cytochrome P450 3A4 (Homo sapiens)	14.1 µM (active)

Each of the following entries comes with a recorded value; kindly state AC50 for each.
1. Cc1cccc(N/C(N)=N/c2nc(C)cc(C)n2)c1
2. Cc1ccccc1OCC(=O)OC1CCN(C)CC1

inactive
inactive

Each of the following entries comes with a recorded value; kindly state AC50 for each.
1. Cc1nn(C)cc1C(C(=O)NC1CCCCC1)N(C(=O)Cc1cccs1)c1ccc(C(C)C)cc1 (centres undefined)
2. COc1cc(-c2nnc(SCC3(c4ccccc4)OCCO3)o2)cc(OC)c1OC
3. CCn1c(COc2ccc(OC)cc2)nc2ccccc21
4. c1ccc(-c2nc(N3CCCCCC3)nc(-n3ccnc3)n2)cc1

1. 2.51 µM (active)
2. 4.47 µM (active)
3. 1.26 µM (active)
4. 0.708 µM (active)

Each of the following entries comes with a recorded value; kindly state AC50 for each.
1. CC(C)(C)c1ccc(OCC(=O)NNC(=O)Cc2cccs2)cc1
2. O=C(NCCCn1ccnc1)c1ccc(Br)c(S(=O)(=O)N2CCOCC2)c1
3. CCOc1ccc(N(C(=O)/C=C/C(=O)Nc2cc(C)on2)C(C(=O)NC2CCCC2)c2ccccc2C)cc1 (centres undefined)
4. CCn1c(N)nc2ccccc21
5. COc1cc(-c2nnc(SCC3(c4ccc(Br)cc4)OCCO3)o2)cc(OC)c1OC
6. O=S(=O)(c1ccccc1)N1CCC2(CCN(Cc3ccncc3)CC2)CC1

1: 3.98 µM (active); 2: 2 µM (active); 3: 0.891 µM (active); 4: inactive; 5: 12.6 µM (active); 6: 3.98 µM (active)

---

Target: Cytochrome P450 3A4 (Homo sapiens)
Test: Cytochrome panel assay with activity outcomes; for activity, negative = inhibition: % is set by controls: 0 for no effect and ±100 for the full control effect
Settings: recombinant CYP, pro-luciferin dealkylation, luminescence, p450-cyp3a4; series mostly up to 57.1 µM
In all, about 16,000 compounds went through this assay and about 5,100 (32%) were called active. About 25% were inconclusive and are not listed. Some of the results follow.
testReadout: activity, negative = inhibition

compound	activity, negative = inhibition
O=C(NCCN1CCOCC1)c1csc2c1CCCCC2	-7.18% [at 2.29 µM] (inactive)
NCCSC[C@H](N)C(=O)O	-7.49% [at 11.4 µM] (inactive)
CCOC(=O)CCN1C(=O)[C@H]2[C@H]3[C@H](O)[C@H](O)C/C(=N/OC/C=C(\C)CCC=C(C)C)[C@H]3CC[C@@H]2C1=O	-16.7% [at 11.4 µM] (inactive)
Cn1c(=O)c2[nH]c(COCc3nc4c([nH]3)c(=O)n(C)c(=O)n4C)nc2n(C)c1=O	-0.524% [at 11.4 µM] (inactive)
Cc1ccc(NC(=O)c2ccc(NCC3CCCO3)c([N+](=O)[O-])c2)cc1Cl (stereo not given)	-6.83% [at 11.4 µM] (inactive)
CCOC(=O)N/N=C1/C[C@@H](O)[C@@H](O)[C@@H]2[C@@H]3C(=O)N(c4cccc(Oc5ccccc5)c4)C(=O)[C@H]3CC[C@H]12	-29.2% [at 11.4 µM] (inactive)

Each of the following entries comes with a recorded value; kindly state activity, negative = inhibition for each.
1. CNC[C@@H](SC)c1ccc(O)c(O)c1
2. Clc1cc2c(c(CSC3=NCN(CC4CC4)CN3)c1)OCOC2
3. O=C(N/N=C1/C[C@@H](O)[C@@H](O)[C@@H]2[C@@H]3C(=O)N(Cc4ccccc4)C(=O)[C@H]3CC[C@@H]12)OCc1ccccc1
4. CCOC(=O)CCN1C(=O)[C@H]2[C@H]3[C@H](O)[C@H](O)C/C(=N/OC/C=C(\C)CCC=C(C)C)[C@@H]3CC[C@@H]2C1=O
5. CCOC(=O)N/N=C1/C[C@@H](O)[C@@H](O)[C@@H]2[C@@H]3C(=O)N(c4cccc(Oc5ccccc5)c4)C(=O)[C@H]3CC[C@@H]12
6. NC(N)=NC(N)=Nc1ccccc1 (tested in a mixture with another compound)
7. N=c1nc(N)nc(N)n1-c1ccc(S(N)(=O)=O)cc1
8. CC(C)=CCC/C(C)=C/CO/N=C1/C[C@@H](O)[C@@H](O)[C@@H]2[C@@H]3C(=O)N(Cc4ccccc4)C(=O)[C@H]3CC[C@@H]12

1. -6.87% [at 11.4 µM] (inactive)
2. -21.4% [at 11.4 µM] (inactive)
3. -17.8% [at 11.4 µM] (inactive)
4. -25.9% [at 11.4 µM] (inactive)
5. -28.7% [at 11.4 µM] (inactive)
6. -12.3% [at 11.4 µM] (inactive)
7. -8.91% [at 11.4 µM] (inactive)
8. -7.78% [at 11.4 µM] (inactive)

Please look up its activity, negative = inhibition: CCCCNC(=O)C1CC(=O)N(c2ccc(OC)cc2)C1c1ccc(OC)cc1 (stereo not given)
3.58% [at 2.29 µM] (inactive)
